Every entry's value here was drawn from ChEMBL document CHEMBL5154846.

tgt: Bromodomain-containing protein 4 (Homo sapiens)
measurement-description: Inhibition of BRD4-BD2 (unknown origin) preincubated for 30 mins followed by substrate addition and measured after 3 hr by HTRF
pIC50: −log10 of the molar value.
Measured pIC50 accompanies every entry in the list below.

# compound, pIC50
rows = [
    ("Cn1cc(-c2cc(C(C)(C)O)ccc2OC2CC2)c2cc(C(=O)NCc3ccc(C(=O)NCCCCNc4cccc5c4C(=O)N(C4CCC(=O)NC4=O)C5=O)cc3)[nH]c2c1=O (stereo not drawn)", 8.11),
    ("Cn1cc(-c2cc(C(C)(C)O)ccc2Oc2ccccc2)c2cc(C(=O)NCc3ccc(C(=O)NCCCCNc4cccc5c4C(=O)N(C4CCC(=O)NC4=O)C5=O)cc3)[nH]c2c1=O (stereo not drawn)", 8.42),
    ("CC(C)Oc1ccc(C(C)(C)O)cc1-c1cn(C)c(=O)c2[nH]c(C(=O)NCc3ccc(C(=O)NCCCCNc4cccc5c4C(=O)N(C4CCC(=O)NC4=O)C5=O)cc3)cc12 (stereo not drawn)", 7.86),
]

====

tgt: Bromodomain-containing protein 4 (Homo sapiens)
measurement-description: Inhibition of BRD4-BD1 (unknown origin) preincubated for 30 mins followed by substrate addition and measured after 3 hr by HTRF assay

# compound, units-symbol, IC50
rows = [
    ("C=C(C)c1ccc(Oc2ccccc2)c(-c2cn(C)c(=O)c3[nH]c(C(=O)NCc4ccc(C(=O)NCCCCNc5cccc6c5C(=O)N(C5CCC(=O)NC5=O)C6=O)cc4)cc23)c1 (stereo not drawn)", "nM", 241),
    ("Cn1cc(-c2ccccc2Oc2ccccc2)c2cc(C(=O)NCc3ccc(C(=O)NCCCCNc4cccc5c4C(=O)N(C4CCC(=O)NC4=O)C5=O)cc3)[nH]c2c1=O (stereo not drawn)", "nM", 34.6),
    ("Cn1cc(-c2ccccc2Oc2ccccc2)c2cc(C(=O)NCCCCC(=O)NCCCCNc3cccc4c3C(=O)N(C3CCC(=O)NC3=O)C4=O)[nH]c2c1=O (stereo not drawn)", "nM", 185),
]

====

tgt: Bromodomain-containing protein 2 (Homo sapiens)
measurement-description: Protac activity at BRD2 in human MV4-11 cells at 100 nM measured after 24 hrs by immunoblot analysis
Format: cell-based
Active and inactive are the calls of the source. No cut-off for these calls is given here.
endpoint-label: Activity

# compound, result
rows = [
    ("Cc1sc2c(c1C)C(c1ccc(Cl)cc1)=N[C@@H](CC(=O)NCCCCCCCCNC(=O)COc1cccc3c1C(=O)N(C1CCC(=O)NC1=O)C3=O)c1nnc(C)n1-2 (stereo partly drawn)", "Active"),
    ("Cn1cc(-c2ccccc2Oc2ccccc2)c2cc(C(=O)NCCCCCC(=O)NCCCCNc3cccc4c3C(=O)N(C3CCC(=O)NC3=O)C4=O)[nH]c2c1=O (stereo not drawn)", "Active"),
    ("Cn1cc(-c2ccccc2Oc2ccccc2)c2cc(C(=O)NCCCCNc3cccc4c3C(=O)N(C3CCC(=O)NC3=O)C4=O)[nH]c2c1=O (stereo not drawn)", "Active"),
]

====

tgt: Bromodomain-containing protein 3 (Homo sapiens)
measurement-description: Protac activity at BRD3 in human MV4-11 cells at 100 nM measured after 4 hrs by immunoblot analysis
Assay type: cell-based
Active and inactive are the calls of the source. No cut-off for these calls is given here.

# compound, Activity
data = [
    ("Cn1cc(-c2ccccc2Oc2ccccc2)c2cc(C(=O)NCCCCC(=O)NCCCCNc3cccc4c3C(=O)N(C3CCC(=O)NC3=O)C4=O)[nH]c2c1=O (configuration not stated)", "Active"),
    ("Cn1cc(-c2ccccc2Oc2ccccc2)c2cc(C(=O)NCCCCNc3cccc4c3C(=O)N(C3CCC(=O)NC3=O)C4=O)[nH]c2c1=O (configuration not stated)", "Active"),
    ("Cn1cc(-c2ccccc2Oc2ccccc2)c2cc(C(=O)NCCCCCCNc3cccc4c3C(=O)N(C3CCC(=O)NC3=O)C4=O)[nH]c2c1=O (configuration not stated)", "Active"),
    ("Cn1cc(-c2ccccc2Oc2ccccc2)c2cc(C(=O)NCCCCCC(=O)NCCCCNc3cccc4c3C(=O)N(C3CCC(=O)NC3=O)C4=O)[nH]c2c1=O (configuration not stated)", "Active"),
    ("Cn1cc(-c2ccccc2Oc2ccccc2)c2cc(C(=O)NCCCCCCC(=O)NCCCCNc3cccc4c3C(=O)N(C3CCC(=O)NC3=O)C4=O)[nH]c2c1=O (configuration not stated)", "Active"),
    ("Cn1cc(-c2ccccc2Oc2ccccc2)c2cc(C(=O)NCc3ccc(C(=O)NCCCCNc4cccc5c4C(=O)N(C4CCC(=O)NC4=O)C5=O)cc3)[nH]c2c1=O (configuration not stated)", "Active"),
    ("Cc1sc2c(c1C)C(c1ccc(Cl)cc1)=N[C@@H](CC(=O)NCCCCCCCCNC(=O)COc1cccc3c1C(=O)N(C1CCC(=O)NC1=O)C3=O)c1nnc(C)n1-2 (some centres not stated)", "Active"),
]

====

tgt: Bromodomain-containing protein 4 (Homo sapiens)
measurement-description: Inhibition of BRD4-BD1 (unknown origin) preincubated for 30 mins followed by substrate addition and measured after 3 hr by HTRF assay
Rule: measured IC50 below 80 nM gets 1; anything equal to or greater than 80 nM gets -1.

# compound, category-label
records = [
    ("Cn1cc(-c2cc(C(C)(C)O)ccc2Oc2ccccc2)c2cc(C(=O)NCc3ccc(C(=O)NCCCCNc4cccc5c4C(=O)N(C4CCC(=O)NC4=O)C5=O)cc3)[nH]c2c1=O (stereo unspecified)", 1),
    ("Cn1cc(-c2ccccc2)c2cc(C(=O)NCc3ccc(C(=O)NCCCCNc4cccc5c4C(=O)N(C4CCC(=O)NC4=O)C5=O)cc3)[nH]c2c1=O (stereo unspecified)", -1),
    ("CC(C)Oc1ccccc1-c1cn(C)c(=O)c2[nH]c(C(=O)NCc3ccc(C(=O)NCCCCNc4cccc5c4C(=O)N(C4CCC(=O)NC4=O)C5=O)cc3)cc12 (stereo unspecified)", -1),
    ("Cn1cc(-c2cc(C(C)(C)O)ccc2OC2CC2)c2cc(C(=O)NCc3ccc(C(=O)NCCCCNc4cccc5c4C(=O)N(C4CCC(=O)NC4=O)C5=O)cc3)[nH]c2c1=O (stereo unspecified)", 1),
    ("Cn1cc(-c2ccccc2Oc2ccccc2)c2cc(C(=O)NCCCCNc3cccc4c3C(=O)N(C3CCC(=O)NC3=O)C4=O)[nH]c2c1=O (stereo unspecified)", -1),
    ("Cn1cc(-c2ccccc2Oc2ccccc2)c2cc(C(=O)NCCCCCC(=O)NCCCCNc3cccc4c3C(=O)N(C3CCC(=O)NC3=O)C4=O)[nH]c2c1=O (stereo unspecified)", -1),
]

====

tgt: Bromodomain-containing protein 4 (Homo sapiens, UniProt O60885)
measurement-description: Inhibition of BRD4-BD1 (unknown origin) preincubated for 30 mins followed by substrate addition and measured after 3 hr by HTRF assay
pIC50: −log10 of the molar value.
Given measured pIC50, output true if it is greater than or equal to 7 and false if not.

# compound, category-label
measured = [
    ("Cn1cc(-c2ccccc2Oc2ccccc2)c2cc(C(=O)NCCCCCCNc3cccc4c3C(=O)N(C3CCC(=O)NC3=O)C4=O)[nH]c2c1=O (stereo unspecified)", "false"),
    ("Cn1cc(-c2cccc(C(C)(C)O)c2)c2cc(C(=O)NCc3ccc(C(=O)NCCCCNc4cccc5c4C(=O)N(C4CCC(=O)NC4=O)C5=O)cc3)[nH]c2c1=O (stereo unspecified)", "true"),
    ("CC(C)Oc1ccc(C(C)(C)O)cc1-c1cn(C)c(=O)c2[nH]c(C(=O)NCc3ccc(C(=O)NCCCCNc4cccc5c4C(=O)N(C4CCC(=O)NC4=O)C5=O)cc3)cc12 (stereo unspecified)", "true"),
    ("Cn1cc(-c2ccccc2Oc2ccccc2)c2cc(C(=O)NCCCCCCC(=O)NCCCCNc3cccc4c3C(=O)N(C3CCC(=O)NC3=O)C4=O)[nH]c2c1=O (stereo unspecified)", "false"),
    ("Cn1cc(-c2ccccc2OC2CC2)c2cc(C(=O)NCc3ccc(C(=O)NCCCCNc4cccc5c4C(=O)N(C4CCC(=O)NC4=O)C5=O)cc3)[nH]c2c1=O (stereo unspecified)", "true"),
]

====

tgt: Bromodomain-containing protein 4 (Homo sapiens, UniProt O60885)
measurement-description: Inhibition of BRD4-BD2 (unknown origin) preincubated for 30 mins followed by substrate addition and measured after 3 hr by HTRF
Measured IC50 accompanies every entry in the list below.

# molecule, tgt, units-symbol, IC50
records = [
    ("CC(C)Oc1ccccc1-c1cn(C)c(=O)c2[nH]c(C(=O)NCc3ccc(C(=O)NCCCCNc4cccc5c4C(=O)N(C4CCC(=O)NC4=O)C5=O)cc3)cc12 (configuration not stated)", "Bromodomain-containing protein 4 (Homo sapiens, UniProt O60885)", "nM", 91.5),
    ("Cn1cc(-c2ccccc2OC2CC2)c2cc(C(=O)NCc3ccc(C(=O)NCCCCNc4cccc5c4C(=O)N(C4CCC(=O)NC4=O)C5=O)cc3)[nH]c2c1=O (configuration not stated)", "Bromodomain-containing protein 4 (Homo sapiens, UniProt O60885)", "nM", 96.4),
    ("Cn1cc(-c2cccc(C(C)(C)O)c2)c2cc(C(=O)NCc3ccc(C(=O)NCCCCNc4cccc5c4C(=O)N(C4CCC(=O)NC4=O)C5=O)cc3)[nH]c2c1=O (configuration not stated)", "Bromodomain-containing protein 4 (Homo sapiens, UniProt O60885)", "nM", 73),
    ("Cn1cc(-c2ccccc2)c2cc(C(=O)NCc3ccc(C(=O)NCCCCNc4cccc5c4C(=O)N(C4CCC(=O)NC4=O)C5=O)cc3)[nH]c2c1=O (configuration not stated)", "Bromodomain-containing protein 4 (Homo sapiens, UniProt O60885)", "nM", 296),
    ("Cn1cc(-c2ccccc2Oc2ccccc2)c2cc(C(=O)NCc3ccc(C(=O)NCCCCNc4cccc5c4C(=O)N(C4CCC(=O)NC4=O)C5=O)cc3)[nH]c2c1=O (configuration not stated)", "Bromodomain-containing protein 4 (Homo sapiens, UniProt O60885)", "nM", 27.2),
    ("Cn1cc(-c2ccccc2Oc2ccccc2)c2cc(C(=O)NCCCCNc3cccc4c3C(=O)N(C3CCC(=O)NC3=O)C4=O)[nH]c2c1=O (configuration not stated)", "Bromodomain-containing protein 4 (Homo sapiens, UniProt O60885)", "nM", 84.9),
    ("Cn1cc(-c2ccccc2Oc2ccccc2)c2cc(C(=O)NCCCCC(=O)NCCCCNc3cccc4c3C(=O)N(C3CCC(=O)NC3=O)C4=O)[nH]c2c1=O (configuration not stated)", "Bromodomain-containing protein 4 (Homo sapiens, UniProt O60885)", "nM", 24.3),
    ("Cn1cc(-c2ccccc2Oc2ccccc2)c2cc(C(=O)NCCCCCCC(=O)NCCCCNc3cccc4c3C(=O)N(C3CCC(=O)NC3=O)C4=O)[nH]c2c1=O (configuration not stated)", "Bromodomain-containing protein 4 (Homo sapiens, UniProt O60885)", "nM", 35.7),
    ("Cn1cc(-c2ccccc2Oc2ccccc2)c2cc(C(=O)NCCCCCC(=O)NCCCCNc3cccc4c3C(=O)N(C3CCC(=O)NC3=O)C4=O)[nH]c2c1=O (configuration not stated)", "Bromodomain-containing protein 4 (Homo sapiens, UniProt O60885)", "nM", 38.8),
    ("Cn1cc(-c2ccccc2Oc2ccccc2)c2cc(C(=O)NCCCCCCNc3cccc4c3C(=O)N(C3CCC(=O)NC3=O)C4=O)[nH]c2c1=O (configuration not stated)", "Bromodomain-containing protein 4 (Homo sapiens, UniProt O60885)", "nM", 39.4),
    ("C=C(C)c1ccc(Oc2ccccc2)c(-c2cn(C)c(=O)c3[nH]c(C(=O)NCc4ccc(C(=O)NCCCCNc5cccc6c5C(=O)N(C5CCC(=O)NC5=O)C6=O)cc4)cc23)c1 (configuration not stated)", "Bromodomain-containing protein 4 (Homo sapiens, UniProt O60885)", "nM", 74.1),
    ("C=C(C)c1ccc(OC(C)C)c(-c2cn(C)c(=O)c3[nH]c(C(=O)NCc4ccc(C(=O)NCCCCNc5cccc6c5C(=O)N(C5CCC(=O)NC5=O)C6=O)cc4)cc23)c1 (configuration not stated)", "Bromodomain-containing protein 4 (Homo sapiens, UniProt O60885)", "nM", 101),
]
